// MIC lookup, one value per entry
- Test system: Staphylococcus aureus
- Assay name: Antibacterial activity against methicillin-susceptible Staphylococcus aureus ATCC 29213 by broth microdilution method in presence of 5% pulmonary surfactant
- Format: functional
- Run parameters: ATCC 29213, Pulmonary surfactant
Value expressed in µg/mL; do not type the unit.

Known MIC results, listed for orientation:
{"columns": ["Smiles string", "Target system", "Units label", "MIC"],
 "data": [
  ["CO/N=C(\\C(=O)N[C@@H]1C(=O)N2C(C(=O)O)=C(CSc3nc(=O)c(O)nn3C)CS[C@H]12)c1csc(N)n1", "Staphylococcus aureus", "µg/mL", 2],
  ["CCCCCCCCCC(=O)N[C@@H](Cc1csc2ccccc12)C(=O)N[C@@H](CC(N)=O)C(=O)N[C@@H](CC(=O)O)C(=O)N[C@@H]1C(=O)NCC(=O)N[C@@H](CCCN)C(=O)N[C@@H](CC(=O)O)C(=O)N[C@H](C)C(=O)N[C@@H](CC(=O)O)C(=O)NCC(=O)N[C@H](CO)C(=O)N[C@@H]([C@@H](C)CC(=O)O)C(=O)N[C@@H](CC(=O)c2ccccc2N)C(=O)O[C@@H]1C", "Staphylococcus aureus", "µg/mL", 16],
  ["CCCCCCCCCC(=O)N[C@@H](Cc1ccc(OC)cc1)C(=O)N[C@@H](CC(N)=O)C(=O)N[C@@H](CC(=O)O)C(=O)N[C@@H]1C(=O)NCC(=O)N[C@@H](CCCN)C(=O)N[C@@H](CC(=O)O)C(=O)N[C@H](C)C(=O)N[C@@H](CC(=O)O)C(=O)NCC(=O)N[C@H](CO)C(=O)N[C@@H]([C@@H](C)CC(=O)O)C(=O)N[C@@H](CC(=O)c2ccccc2N)C(=O)O[C@@H]1C", "Staphylococcus aureus", "µg/mL", 2]
]}

// moving on: another record for MIC
Form field MIC, entry "CCCCCCCCCC(=O)N[C@@H](CCc1ccccc1)C(=O)N[C@@H](CC(N)=O)C(=O)N[C@@H](CC(=O)O)C(=O)N[C@@H]1C(=O)NCC(=O)N[C@@H](CCCN)C(=O)N[C@@H](CC(=O)O)C(=O)N[C@H](C)C(=O)N[C@@H](CC(=O)O)C(=O)NCC(=O)N[C@H](CO)C(=O)N[C@@H]([C@@H](C)CC(=O)O)C(=O)N[C@@H](CC(=O)c2ccccc2N)C(=O)O[C@@H]1C" : 32
